Items are presented alongside their recorded inhibition.
test system: Proto-oncogene tyrosine-protein kinase receptor Ret (Homo sapiens), P07949 [V804L]; settings: at 1 µM
Sequence (P07949 whole entry V804L): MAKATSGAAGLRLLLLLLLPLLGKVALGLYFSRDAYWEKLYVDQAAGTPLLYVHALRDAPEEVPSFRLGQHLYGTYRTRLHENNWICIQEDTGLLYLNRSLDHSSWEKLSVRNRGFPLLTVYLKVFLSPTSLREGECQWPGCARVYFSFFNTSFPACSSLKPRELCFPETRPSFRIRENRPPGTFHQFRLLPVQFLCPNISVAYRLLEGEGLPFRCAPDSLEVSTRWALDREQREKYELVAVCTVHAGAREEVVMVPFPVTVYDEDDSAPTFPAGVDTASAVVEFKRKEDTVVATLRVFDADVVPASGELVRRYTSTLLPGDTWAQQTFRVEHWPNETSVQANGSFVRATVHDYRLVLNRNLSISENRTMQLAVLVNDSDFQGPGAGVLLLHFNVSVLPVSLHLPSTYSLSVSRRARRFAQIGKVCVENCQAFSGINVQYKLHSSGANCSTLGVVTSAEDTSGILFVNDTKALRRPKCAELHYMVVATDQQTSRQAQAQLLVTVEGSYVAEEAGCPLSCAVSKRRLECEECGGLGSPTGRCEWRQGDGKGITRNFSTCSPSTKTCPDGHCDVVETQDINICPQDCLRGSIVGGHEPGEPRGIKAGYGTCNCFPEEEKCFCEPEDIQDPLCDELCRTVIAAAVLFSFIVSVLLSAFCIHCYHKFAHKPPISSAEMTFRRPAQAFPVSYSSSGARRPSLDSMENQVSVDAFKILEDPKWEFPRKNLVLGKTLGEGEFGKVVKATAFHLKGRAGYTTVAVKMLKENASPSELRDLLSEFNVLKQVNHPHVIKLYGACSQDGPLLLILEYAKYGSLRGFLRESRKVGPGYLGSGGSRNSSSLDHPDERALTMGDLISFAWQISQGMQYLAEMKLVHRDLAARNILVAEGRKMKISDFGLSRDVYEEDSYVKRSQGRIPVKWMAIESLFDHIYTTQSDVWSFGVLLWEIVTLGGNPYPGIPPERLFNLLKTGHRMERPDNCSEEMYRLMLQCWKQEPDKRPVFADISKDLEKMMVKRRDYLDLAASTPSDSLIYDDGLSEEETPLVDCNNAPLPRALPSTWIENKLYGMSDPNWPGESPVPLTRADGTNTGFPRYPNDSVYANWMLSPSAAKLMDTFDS

querySmiles: COC(=O)Nc1nc2ccc(S(=O)(=O)c3ccc(NC(=O)Nc4cc(C(F)(F)F)ccc4F)cc3)cc2[nH]1
observed: 2.64%
//
querySmiles: CC(C)COC(=O)c1ccc2c(c1)/C(=C/Nc1ccc(S(N)(=O)=O)cc1)C(=O)N2
observed: 82.4%
//
querySmiles: Clc1ccc(-c2nn3ncccc3c2-c2ccnc(Nc3ccccc3)n2)cc1
observed: 4.92%
//
querySmiles: Fc1ccc(-c2cc(-c3c[nH]nc3-c3ccccn3)ccn2)cc1
observed: 8.21%

For the next question, use this molecule.
Problem: Item COc1cccc(-c2c[nH]c3c(N/N=C/c4ccncc4)ncnc23)c1 : provide inhibition
Result: 30.7%

---

biological target: Tyrosine-protein kinase Lyn (Homo sapiens); details: at 0.1 µM;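 further: mean inhibition of the LYN A splice variant of the kinase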
Description: GSK_PKIS: LYN A (splice variant) mean inhibition at 0.1 uM [Nanosyn]
endpoint: inhibition (%)
Kindly answer with a numeric value in %, unit omitted.

Known inhibition results, listed for orientation:
querySmiles: COc1cc2ncn(-c3cc(OCc4ccccc4C(F)(F)F)c(C(=O)N(C)C)s3)c2cc1OC
endpoint: inhibition
measureUnit: %
observed: 0.76

querySmiles: Cc1ccc2c(-c3ccnc(Nc4ccccc4)n3)c(-c3ccc(F)cc3)nn2n1
endpoint: inhibition
measureUnit: %
observed: 10.8

querySmiles: COc1cccc(-c2c[nH]c3c(N/N=C/c4ccncc4)ncnc23)c1
endpoint: inhibition
measureUnit: %
observed: 40.1

querySmiles: Cc1ccc(O)cc1Nc1ccnc2cc(-c3ccccn3)ccc12
endpoint: inhibition
measureUnit: %
observed: 72.8

querySmiles: CS(=O)(=O)CCNCc1ccc(-c2ccc3ncnc(Nc4ccc(OCc5ccccc5)c(C(F)(F)F)c4)c3c2)o1
endpoint: inhibition
measureUnit: %
observed: 4.35

Problem: Item CCn1c(-c2nonc2N)nc2ccccc21 : provide inhibition
Result: 3.33

Problem: Item Fc1ccc(-c2nn3ccccc3c2-c2ccncc2)cc1 : provide inhibition
Result: 0.64

Problem: Item COc1cc(N2CCN(C(C)C)CC2)ccc1Nc1nc(Nc2ccc(F)cc2C(N)=O)c2cc[nH]c2n1 : provide inhibition
Result: 2.75

Problem: Item c1ccc(-c2nc3n(c2-c2ccc4c(c2)OCO4)CCC3)nc1 : provide inhibition
Result: 1.78

---

Items are presented alongside their recorded inhibition.
target: NT-3 growth factor receptor (Homo sapiens) (UniProt Q16288); details: at 0.1 µM;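 further: mean percent inhibition of TRKC, reported within the GSK PKIS dataset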
Sequence (Q16288 32-839 limits assumed): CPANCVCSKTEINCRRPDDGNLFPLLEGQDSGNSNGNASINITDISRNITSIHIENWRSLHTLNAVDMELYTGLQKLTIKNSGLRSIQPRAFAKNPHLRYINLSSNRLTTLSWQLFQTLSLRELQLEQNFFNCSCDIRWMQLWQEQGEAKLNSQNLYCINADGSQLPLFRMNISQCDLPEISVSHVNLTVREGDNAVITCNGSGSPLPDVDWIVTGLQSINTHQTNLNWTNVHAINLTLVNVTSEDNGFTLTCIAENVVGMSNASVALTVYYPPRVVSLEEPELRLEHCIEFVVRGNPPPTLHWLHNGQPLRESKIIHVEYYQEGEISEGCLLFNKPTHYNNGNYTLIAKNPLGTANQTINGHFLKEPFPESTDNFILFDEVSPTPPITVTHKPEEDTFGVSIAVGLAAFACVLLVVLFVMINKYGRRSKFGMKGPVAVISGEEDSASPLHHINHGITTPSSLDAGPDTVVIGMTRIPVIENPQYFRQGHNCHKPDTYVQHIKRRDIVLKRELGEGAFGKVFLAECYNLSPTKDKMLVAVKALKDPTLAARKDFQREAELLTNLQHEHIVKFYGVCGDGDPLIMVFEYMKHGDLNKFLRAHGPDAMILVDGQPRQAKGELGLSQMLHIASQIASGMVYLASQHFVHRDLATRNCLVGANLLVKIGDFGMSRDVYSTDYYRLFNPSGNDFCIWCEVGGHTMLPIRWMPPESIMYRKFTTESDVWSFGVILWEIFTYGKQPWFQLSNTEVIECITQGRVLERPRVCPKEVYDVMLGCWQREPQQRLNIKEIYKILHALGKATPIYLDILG
Kindly answer with a numeric value in %, unit omitted.

querySmiles: CCCN1CCC(c2ccc(Nc3nc(Nc4cc(F)ccc4C(N)=O)c4cc[nH]c4n3)c(OC)c2)CC1
inhibition (%): 2.83
--
querySmiles: Nc1ncc(-c2cccc(S(N)(=O)=O)c2)c2scc(-c3ccc(F)c(Cl)c3)c12
inhibition (%): 1.75
--
querySmiles: CCN1CCC(CC(=O)Nc2n[nH]c3nnc(-c4cccc(F)c4F)cc23)CC1
inhibition (%): 0.17
--
querySmiles: COC(=O)Nc1nc2ccc(S(=O)(=O)c3ccc(NC(=O)Nc4cc(C(F)(F)F)ccc4F)cc3)cc2[nH]1
inhibition (%): 1.98
--
querySmiles: O=S(=O)(CCNCc1ccc(-c2ccc3ncnc(Nc4ccc(OCc5cccc(F)c5)c(Cl)c4)c3c2)o1)c1ccccc1
inhibition (%): 3.32

Problem: Item Fc1ccc(-c2nn3ccccc3c2-c2ccncc2)cc1 : provide inhibition
Result: -0.15

Problem: Item CCc1nn2ncccc2c1-c1ccnc(NC2CC2)n1 : provide inhibition
Result: 1.72

Problem: Item COc1cccc(-c2c[nH]c3c(N/N=C/c4ccncc4)ncnc23)c1 : provide inhibition
Result: 4.04

Problem: Item CNC(=O)c1cc(-c2ccc(F)cc2)cc(-c2ccc(S(=O)(=O)N3CCCC3)cc2)c1N : provide inhibition
Result: 2.53

Problem: Item CN1CCC(n2cnc(-c3ccc(F)cc3)c2-c2ccnc(N)n2)CC1 : provide inhibition
Result: 3.47

Problem: Item COc1cc2ncn(-c3cc(OCc4ccccc4C(F)(F)F)c(C(=O)N(C)C)s3)c2cc1OC : provide inhibition
Result: 5.43

Problem: Item CC(C)(CO)CNC(=O)c1ccc2c(c1)/C(=N/Nc1ccc(S(N)(=O)=O)cc1)C(=O)N2 : provide inhibition
Result: 6.89

Problem: Item c1cc(-c2cnn3nc(N4CCOCC4)ccc23)nc(NC2CC2)n1 : provide inhibition
Result: 1.5

Problem: Item NC(=O)c1sc(-n2cnc3ccc(C(F)(F)F)cc32)cc1OCc1ccccc1Br : provide inhibition
Result: 4.04

Problem: Item CCn1cc(-c2ccnc3[nH]ccc23)c(-c2cccc(NC(=O)Nc3ccc(OCc4ccccc4)cc3)c2)n1 : provide inhibition
Result: -0.62

Problem: Item CNC(=O)c1cccc(C#Cc2cncnc2Nc2ccc(OCc3cccc(F)c3)c(Cl)c2)c1 : provide inhibition
Result: 0.94

Problem: Item Cc1cccc(Nc2ncc(-c3ccccc3)o2)c1 : provide inhibition
Result: 1.16

Problem: Item COc1ccc(-c2oc3ncnc(N)c3c2-c2ccc(NC(=O)Nc3cc(C(F)(F)F)ccc3F)cc2)cc1 : provide inhibition
Result: 87.2

Problem: Item COc1cc(/C=N/Nc2ncnc3[nH]ncc23)ccc1O : provide inhibition
Result: 2.95

Problem: Item COc1ccc(-c2cc(-c3c[nH]nc3-c3ccccn3)ccn2)cc1 : provide inhibition
Result: 3.2

---

target: BDNF/NT-3 growth factors receptor (Homo sapiens); conditions: at 0.1 µM;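 further: each value is a mean percent inhibition of TrkB kinase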
endpoint: inhibition
Please don't drop the unit; write it after the number.

Known inhibition results, listed for orientation:
querySmiles: Fc1ccc(-c2cc(-c3c[nH]nc3-c3ccccn3)ccn2)cc1
endpoint: inhibition
observed: 4.04%
--
querySmiles: CCNC(=O)O[C@H]1CN[C@H](C#Cc2cc3ncnc(Nc4ccc(OCc5cccc(F)c5)c(Cl)c4)c3s2)C1
endpoint: inhibition
observed: 3.01%
--
querySmiles: CCCN(CCS(C)(=O)=O)Cc1ccc(-c2ccc3ncnc(Nc4ccc(OCc5cccc(F)c5)c(Cl)c4)c3c2)o1
endpoint: inhibition
observed: 0.15%

For the next question, use this compound.
Problem: Item CCCN1CCC(c2ccc(Nc3nc(Nc4cc(F)ccc4C(N)=O)c4cc[nH]c4n3)c(OC)c2)CC1 : provide inhibition
Result: 4.25%

---

molecular target: Ephrin type-B receptor 3 (Homo sapiens) (UniProt P54753); conditions: at 1 µM;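 further: values are mean percent inhibition of EPHB3 from the GSK PKIS screening panel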
Sequence (P54753 whole entry): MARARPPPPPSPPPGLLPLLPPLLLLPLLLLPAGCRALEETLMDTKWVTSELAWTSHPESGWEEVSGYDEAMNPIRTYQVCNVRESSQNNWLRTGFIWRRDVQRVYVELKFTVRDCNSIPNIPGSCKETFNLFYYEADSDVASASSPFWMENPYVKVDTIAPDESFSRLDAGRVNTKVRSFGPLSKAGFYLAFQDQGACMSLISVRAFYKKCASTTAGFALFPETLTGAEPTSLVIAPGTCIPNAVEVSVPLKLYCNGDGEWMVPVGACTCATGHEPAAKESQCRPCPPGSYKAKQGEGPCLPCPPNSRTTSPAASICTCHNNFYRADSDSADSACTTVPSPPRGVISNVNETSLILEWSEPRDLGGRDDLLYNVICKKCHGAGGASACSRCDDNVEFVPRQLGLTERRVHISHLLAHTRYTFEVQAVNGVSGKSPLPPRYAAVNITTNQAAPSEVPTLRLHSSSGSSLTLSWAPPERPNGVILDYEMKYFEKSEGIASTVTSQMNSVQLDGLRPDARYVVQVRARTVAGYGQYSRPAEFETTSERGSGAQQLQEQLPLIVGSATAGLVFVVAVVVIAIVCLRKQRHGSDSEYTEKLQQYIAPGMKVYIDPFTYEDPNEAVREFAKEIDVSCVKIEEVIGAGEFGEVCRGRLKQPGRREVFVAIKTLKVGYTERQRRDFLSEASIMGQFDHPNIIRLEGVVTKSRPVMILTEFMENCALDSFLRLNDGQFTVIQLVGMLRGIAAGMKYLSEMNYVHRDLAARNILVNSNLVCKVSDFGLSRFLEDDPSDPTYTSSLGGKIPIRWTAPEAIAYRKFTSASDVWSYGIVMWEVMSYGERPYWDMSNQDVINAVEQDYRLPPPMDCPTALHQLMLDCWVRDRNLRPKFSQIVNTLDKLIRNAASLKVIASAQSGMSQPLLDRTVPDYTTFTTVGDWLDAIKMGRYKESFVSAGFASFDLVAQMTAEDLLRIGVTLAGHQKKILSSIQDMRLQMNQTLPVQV
endpoint: inhibition (%)
Kindly answer with a numeric value in %, unit omitted.

Known inhibition results, listed for orientation:
querySmiles: Fc1ccc(-c2nn3ncccc3c2-c2ccnc(Nc3ccc4c(c3)OCCO4)n2)cc1
inhibition / %: 16.2

querySmiles: CCn1c(-c2nonc2N)nc2c(C#CC(C)(C)O)nc(OC[C@H](N)c3ccccc3)cc21
inhibition / %: 1.06

querySmiles: CN1CCC(n2cnc(-c3ccc(F)cc3)c2-c2ccnc(Nc3ccccc3)n2)CC1
inhibition / %: 2.3

querySmiles: COc1cc(N2CCN(C(C)C)CC2)ccc1Nc1nc(Nc2ccc(F)cc2C(N)=O)c2cc[nH]c2n1
inhibition / %: 2.03

querySmiles: c1cc(-c2cnn3nc(N4CCOCC4)ccc23)nc(NC2CC2)n1
inhibition / %: 3.96

Problem: Item CN1CCC(n2cnc(-c3ccc(F)cc3)c2-c2ccnc(N)n2)CC1 : provide inhibition
Result: 1.1

Problem: Item CN(C)CCOc1ccc(-c2nc(-c3ccncc3)c(-c3ccc4c(c3)CC/C4=N\O)[nH]2)cc1 : provide inhibition
Result: 3.2

Problem: Item NS(=O)(=O)c1ccc(N/N=C2\C(=O)Nc3ccc4ncccc4c32)cc1 : provide inhibition
Result: -3.76

Problem: Item COC(=O)Nc1nc2ccc(S(=O)(=O)c3ccc(NC(=O)Nc4cc(C(F)(F)F)ccc4F)cc3)cc2[nH]1 : provide inhibition
Result: 0.8

---

tested on: Tyrosine-protein kinase ABL1 (Homo sapiens), P00519 [H396P]; settings: at 0.1 µM
endpoint: inhibition (%)
Kindly answer with a numeric value in %, unit omitted.

querySmiles: COc1cccc(-c2c[nH]c3c(N/N=C/c4ccncc4)ncnc23)c1
assayedTarget: Tyrosine-protein kinase ABL1 (Homo sapiens), P00519 [H396P]
inhibition [%]: 76.2
//
querySmiles: COc1cccc(-n2ncc3c(N/N=C/c4ccc(F)cc4)ncnc32)c1
assayedTarget: Tyrosine-protein kinase ABL1 (Homo sapiens), P00519 [H396P]
inhibition [%]: 51.2
//
querySmiles: CS(=O)(=O)CCNCc1ccc(-c2ccc3ncnc(Nc4ccc(OCc5ccccc5)c(C(F)(F)F)c4)c3c2)o1
assayedTarget: Tyrosine-protein kinase ABL1 (Homo sapiens), P00519 [H396P]
inhibition [%]: 4.04
//
querySmiles: CNC(=O)c1cccc(C#Cc2cncnc2Nc2ccc(OCc3cccc(F)c3)c(Cl)c2)c1
assayedTarget: Tyrosine-protein kinase ABL1 (Homo sapiens), P00519 [H396P]
inhibition [%]: 0.79
//
querySmiles: N#Cc1c(NC(=O)CN2CCOCC2)sc2c1CCCC2
assayedTarget: Tyrosine-protein kinase ABL1 (Homo sapiens), P00519 [H396P]
inhibition [%]: 2.48

Problem: Item O=S(=O)(CCNCc1ccc(-c2ccc3ncnc(Nc4ccc(OCc5cccc(F)c5)c(Cl)c4)c3c2)o1)c1ccccc1 : provide inhibition
Result: 5.17

Problem: Item c1ccc(COc2ccc(Nc3ncnc4ccc(-c5ccco5)cc34)cc2)cc1 : provide inhibition
Result: 0.16

Problem: Item CNC(=O)c1cncc(/C=C/c2ccccc2Cl)c1 : provide inhibition
Result: 2.14

Values were extracted from ChEMBL document CHEMBL1961873.
